List of IC50 values.
Tested on: MDA-MB-231 cells
Test: MTT cytotoxicity, MDA-MB-231
Type: cell-based
Details: Homo sapiens, 48 h, mean of three experiments
metric name: IC50 (µM)

[[record]]
compound = "CN(C)CCN1C(=O)c2cccc3cc(N)cc(c23)C1=O [Amonafide, amonafide, reference compound]"
value_units = "µM"
obs_value = 7.98

[[record]]
compound = "NCCCCNCCCCNCCCCNCC(=O)NCCCN1C(=O)c2cccc3cccc(c23)C1=O [11f]"
value_units = "µM"
obs_value = 57.1

[[record]]
compound = "NCCCNCCCNCC(=O)NCCCN1C(=O)c2cccc3cccc(c23)C1=O [11b]"
value_units = "µM"
obs_value = 16.8

[[record]]
compound = "NCCCNCC(=O)NCCCN1C(=O)c2cccc3cccc(c23)C1=O [11a]"
value_units = "µM"
obs_value = 32.4

[[record]]
compound = "Cl.Cl.Cl.Cl.NCCCNCCCCNCCCNCC(=O)NCCCN1C(=O)c2cccc3cccc(c23)C1=O [11e]"
value_units = "µM"
obs_value = 12


Hey, just so you know, these numbers are from paper PMC6273765.
